experiment: Bioavailability in Sprague-Dawley rat; format: ADME, organism-based; settings: in vivo
recorded_metric: bioavailability (%)

>>> observed_value("O=C(NCc1cc(Cl)ccc1-n1cnnn1)[C@@H]1CC=NN1C(=O)[C@H](O)c1ccccc1")
60
>>> observed_value("CCCC[C@@H](O)C(=O)N1N=CC[C@H]1C(=O)NCc1cc(Cl)ccc1-n1cnnn1")
70
>>> observed_value("O=C(NCc1cc(Cl)ccc1-n1cnnn1)[C@@H]1C[C@@H]2C[C@@H]2N1C(=O)[C@H](O)c1ccccc1")
63
>>> observed_value("CC(C)(C)[C@@H](O)C(=O)N1C[C@@H]2C[C@@H]2[C@H]1C(=O)NCc1cc(Cl)ccc1-n1cnnn1")
57
>>> observed_value("O=C(NCc1cc(Cl)ccc1-n1cnnn1)[C@@H]1CC=NN1C(=O)[C@H](O)c1ccc(F)cc1")
75
>>> observed_value("O=C(NCc1cc(Cl)ccc1-n1cnnn1)[C@@H]1C[C@H]2C[C@H]2N1C(=O)[C@H](O)c1ccccc1")
86

---

assay: Drug excretion in rat urine assessed as compound unchanged; type: ADME, tissue-based; conditions: read-out: Drug excretion
recorded_metric: dose excreted (%)

>>> observed_value("CCC(=O)O[C@@H](C(=O)N1N=CC[C@H]1C(=O)NCc1cc(Cl)ccc1-n1cnnn1)c1ccc(F)cc1 [AZD-8165]")
66

---

assay: Kinetic solubility of compound in HBSS-MES buffer at 5 to 10 mM at pH 6.8 by LC-UV/MS analysis; assay type: physicochemical; details: read-out: Kinetic_solubility
The following compounds are shown together with reported solubility kinetic values.
recorded_metric: solubility kinetic (µM)

>>> observed_value("O=C(NCc1cc(Cl)ccc1-n1cnnn1)[C@@H]1CC=NN1C(=O)[C@H](O)c1ccccc1")
98
>>> observed_value("CC(C)(C)[C@@H](O)C(=O)N1C[C@@H]2C[C@@H]2[C@H]1C(=O)NCc1cc(Cl)ccc1-n1cnnn1")
97
>>> observed_value("O=C(NCc1cc(Cl)ccc1-n1cnnn1)[C@@H]1C[C@H]2C[C@H]2N1C(=O)[C@H](O)c1ccccc1")
100
>>> observed_value("CCC(=O)O[C@@H](C(=O)N1N=CC[C@H]1C(=O)NCc1cc(Cl)ccc1-n1cnnn1)c1ccc(F)cc1")
2.5
>>> observed_value("CC(=O)O[C@@H](C(=O)N1N=CC[C@H]1C(=O)NCc1cc(Cl)ccc1-n1cnnn1)c1ccc(F)cc1")
87.5
>>> observed_value("CCCCC(=O)O[C@@H](C(=O)N1N=CC[C@H]1C(=O)NCc1cc(Cl)ccc1-n1cnnn1)c1ccc(F)cc1")
20.5
>>> observed_value("O=C(NCc1cc(Cl)ccc1-n1cnnn1)[C@@H]1C[C@@H]2C[C@@H]2N1C(=O)[C@H](O)c1ccccc1")
97
>>> observed_value("CCCC[C@@H](O)C(=O)N1N=CC[C@H]1C(=O)NCc1cc(Cl)ccc1-n1cnnn1")
59
>>> observed_value("O=C(NCc1cc(Cl)ccc1-n1cnnn1)[C@@H]1CC=NN1C(=O)[C@H](O)c1ccc(F)cc1")
95

---

experiment: Drug excretion in dog urine assessed as compound unchanged; format: ADME, tissue-based, Canis lupus familiaris; details: read-out: Drug excretion
recorded_metric: dose excreted (%)

>>> observed_value("CCC(=O)O[C@@H](C(=O)N1N=CC[C@H]1C(=O)NCc1cc(Cl)ccc1-n1cnnn1)c1ccc(F)cc1")
18

From: ChEMBL document CHEMBL3785091
